meta.source: patent US20060111305A1

Assay: Concentrations of DCDQ and DCDQ carbamoyl glucuronide (M6) in human plasma, LC/SRM (Table 34)
Type: in vivo, healthy human subjects
Conditions: human, plasma, oral, 300 mg, plasma, 300 mg (fed), 24 hr, Mean ± S.D.; read-out: DCDQ concentration in plasma
Observation Type: concentration at 24 h (ng/mL)
Numeric answer only, unit ng/mL assumed.

Please look up its concentration at 24 h: c1cc2c3c(c1)[C@H]1CCC[C@H]1CN3CCNC2 [DCDQ, reference compound] 2.15

* * *

Assay: Dog urinary excretion and metabolite profiles after oral capsule of [14C]DCDQ
Assay type: in vivo, beagle dogs
Conditions: 24-48 hr, Mean
Observation Type: Chromatographic distribution of radioactivity in dog urine
Just so you know, I need the unit written after the number.

Solved entries:
Compound	Recorded Measurement
OC1CN2C[C@@H]3CCC[C@@H]3c3cccc(c32)CN1 (some centres unmarked) [Metabolite M1, hydroxy DCDQ]	5.7%
O=C1CC[C@@H]2c3cccc4c3N(CCNC4)C[C@H]12 [Metabolite M7, 17-keto DCDQ]	5.9%
OC1[C@@H]2CCC[C@@H]2c2cccc3c2N1CCNC3 (some centres unmarked) [Metabolite M2, hydroxy DCDQ]	22%
c1cc2c3c(c1)[C@H]1CCC[C@H]1CN3CCNC2 [DCDQ, reference compound]	3.4%

Continue with the next compound.
Please look up its Chromatographic distribution of radioactivity in dog urine: O=C(O)[C@H]1O[C@@H](OC(=O)N2CCN3C[C@@H]4CCC[C@@H]4c4cccc(c43)C2)[C@H](O)[C@@H](O)[C@@H]1O [Metabolite M6, carbamoyl glucuronide of DCDQ] 4.7%
